B1: TRIM9 (parent)
chain: CVQCKMPVCYQCLEEGKHSSHEVK

Variants of: B1
Test: protein stability index of a GFP-peptide fusion (GPS, HEK-293T) (PSI 1-6); higher = more stable;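 also: lentivirally expressed fusions sorted by FACS into six bins by GFP to DsRed ratio, PSI derived from sequencing read proportions per bin multiplied by bin number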
Details: c terminus: a fixed tail appended
Please go through the items and note down their protein stability index.
Answer using only a numeral; do not append any unit.

What does the record list as protein stability index for CVQCKMPVCYQWLEEGKHSSHEVK [C12W] ?
2.92

Same lookup for CLQCKMPVCYQCLEEGKHSSHEVK [V2L] , please.
3.5

Same lookup for CVQCKMPVCYQCLEEGKHSSHEQK [V23Q] , please.
3.85

Same lookup for CVQCKMPVCYQCLEEGHHSSHEVK [K17H] , please.
4.47

Same lookup for CVQCKTPVCYQCLEEGKHSSHEVK [M6T] , please.
3.96

Same lookup for NVQCKMPVCYQCLEEGKHSSHEVK [C1N] , please.
2.79

Same lookup for PVQCKMPVCYQCLEEGKHSSHEVK [C1P] , please.
2.86

Same lookup for CVQTKMPVCYQCLEEGKHSSHEVK [C4T] , please.
2.93

Same lookup for CVQCKMPVCIQCLEEGKHSSHEVK [Y10I] , please.
3.71

Same lookup for CYQCKMPVCYQCLEEGKHSSHEVK [V2Y] , please.
3.71

Same lookup for CVQCKMPVCPQCLEEGKHSSHEVK [Y10P] , please.
3.63

Same lookup for CVQCKMPVCYQCLEWGKHSSHEVK [E15W] , please.
2.72

Same lookup for CVQCTMPVCYQCLEEGKHSSHEVK [K5T] , please.
3.38

Same lookup for CEQCKMPVCYQCLEEGKHSSHEVK [V2E] , please.
3.92

Same lookup for CVQCKMPVCYQCLEEGKESSHEVK [H18E] , please.
3.56

Same lookup for CVQCKMPVCYQDLEEGKHSSHEVK [C12D] , please.
4.2

Same lookup for RVQCKMPVCYQCLEEGKHSSHEVK [C1R] , please.
3.58

Same lookup for CVQCKMPVCYQCLEEFKHSSHEVK [G16F] , please.
3.73

Same lookup for CVQCKMPVCYQCLEEGKHSSHKVK [E22K] , please.
4.31

Same lookup for CVQCKMPVCYQCLETGKHSSHEVK [E15T] , please.
3.69

Same lookup for CVQCKMQVCYQCLEEGKHSSHEVK [P7Q] , please.
3.83

Same lookup for CVQCKMPVCYQCLEEGKMSSHEVK [H18M] , please.
3.93

Same lookup for CVQCKMPVCYKCLEEGKHSSHEVK [Q11K] , please.
3.95

Same lookup for CVQCKMPVCYHCLEEGKHSSHEVK [Q11H] , please.
3.2

Same lookup for CVQCKMPVCYQCLEEGKHHSHEVK [S19H] , please.
3.45

Same lookup for CVQCKMPVCYQCLEEGKGSSHEVK [H18G] , please.
3.63

Same lookup for CVQCKMPVCYQCLEEGKHESHEVK [S19E] , please.
4.62

Same lookup for CVQCKMPVCYQCLEEGKHSMHEVK [S20M] , please.
4

Same lookup for CVQCHMPVCYQCLEEGKHSSHEVK [K5H] , please.
3.8

Same lookup for CVQCKMMVCYQCLEEGKHSSHEVK [P7M] , please.
4.33

Same lookup for CVQCKMPVCYQCLENGKHSSHEVK [E15N] , please.
3.82

Same lookup for CVQCKMPVCYQCLEEWKHSSHEVK [G16W] , please.
2.8

Same lookup for CVQCGMPVCYQCLEEGKHSSHEVK [K5G] , please.
4.38

Same lookup for CVQCKMPVCYQCLEEGKHSSHYVK [E22Y] , please.
3.28

Same lookup for CVQCKMPVCYQCLEIGKHSSHEVK [E15I] , please.
3.82

Same lookup for CVQCKMPACYQCLEEGKHSSHEVK [V8A] , please.
4.13

Same lookup for CSQCKMPVCYQCLEEGKHSSHEVK [V2S] , please.
4.25

Same lookup for CVQCKMPVLYQCLEEGKHSSHEVK [C9L] , please.
3.28

Same lookup for CVQCKMPVCYQCLEEGKHSSHEVQ [K24Q] , please.
3.96

Same lookup for CVQCKMPDCYQCLEEGKHSSHEVK [V8D] , please.
4.21

Same lookup for CVQYKMPVCYQCLEEGKHSSHEVK [C4Y] , please.
3.86

Same lookup for CVQCKMPVCYQCLEEAKHSSHEVK [G16A] , please.
4.02

Same lookup for CVQCKMPVCYQCLEEGKHDSHEVK [S19D] , please.
3.8

Same lookup for CVQCKMPVCYQVLEEGKHSSHEVK [C12V] , please.
3.45

Same lookup for CVQCKMPVCYQCLEEGKHSSEEVK [H21E] , please.
4.57

Same lookup for CVQCKMPVCYQCLEEGCHSSHEVK [K17C] , please.
3.47
